Target: HCK enzyme (Homo sapiens (Human))
Criterion: IC50 strictly less than 5 nM. Met: t. Not met: f.

Please review the entries below; each comes with its answer.
1. Cc1ccc(-n2nc(C(C)(C)C)cc2NC(=O)Nc2ccc(Oc3ccnc4[nH]c(=O)[nH]c34)c3ccccc23)cc1    t
2. CC(C)(C)c1cc(NC(=O)Nc2ccc(Oc3ccnc4[nH]c(=O)[nH]c34)c3ncccc23)n(-c2ccccc2)n1    f

I wonder whether CC(C)(C)c1cc(NC(=O)Nc2ccc(Oc3ccnc4[nH]c(=O)cnc34)c3ccccc23)n(-c2ccccc2)n1 has IC50 below 5 nM. Can you tell?
t

API: query returns whether the compound falls strictly under 5 nM in IC50. Query: CC(C)(C)c1cc(NC(=O)Nc2ccc(Oc3ccnc4[nH]c(=O)[nH]c34)c3ccccc23)n(-c2ccccc2)n1
t

Bench note: check whether COc1ccc(-n2nc(C(C)(C)C)cc2NC(=O)Nc2ccc(Oc3ncnc4[nH]c(=O)cnc34)c3ccccc23)cc1 shows IC50 below 5 nM
f

Quick check: IC50 of Cc1ccc(-n2nc(C(C)(C)C)cc2NC(=O)Nc2ccc(Oc3ccnc4[nH]c(=O)n(C)c34)c3ccccc23)cc1 under 5 nM?
t

For this compound, is IC50 lower than 5 nM? COc1ccc(-n2nc(C(C)(C)C)cc2NC(=O)Nc2ccc(Oc3ccnc4[nH]c(=O)[nH]c34)c3ncccc23)cc1
t

Input CC(C)(C)c1cc(NC(=O)Nc2ccc(Oc3ccnc4[nH]c(=O)cnc34)c3ccccc23)n(-c2ccc(S(C)(=O)=O)cc2)n1 ; condition: IC50 strictly below 5 nM. Does it hold?
t

# TODO verify IC50 < 5 nM strictly for this compound: COc1ccc(-n2nc(C(C)(C)C)cc2NC(=O)Nc2ccc(Oc3ccnc4[nH]c(=O)cnc34)c(Cl)c2Cl)cc1
t

Is 5 nM strictly greater than the compound's reported IC50? compound: COc1ccc(-n2nc(C(C)(C)C)cc2NC(=O)Nc2ccc(Oc3ccnc4[nH]c(=O)[nH]c34)c3ccccc23)cc1
t

Record CSc1ccc(-n2nc(C(C)(C)C)cc2NC(=O)Nc2ccc(Oc3ccnc4[nH]c(=O)cnc34)c3ccccc23)cc1 : is its IC50 strictly below 5 nM?
t

IC50 strictly < 5 nM for this compound? CC(C)(C)c1cc(NC(=O)Nc2ccc(Oc3ccnc4[nH]c(=O)cnc34)c3ccccc23)n(-c2ccc(Cl)cc2)n1
f

Field: below-cutoff. Rule: recorded IC50 strictly less than 5 nM. Subject: CC(C)(C)c1cc(NC(=O)Nc2ccc(Oc3ccnc4[nH]c(=O)cnc34)c3ccccc23)n(-c2ccc(CO)cc2)n1
f

# check: IC50 < 5 nM for COc1ccc(-n2nc(C(C)(C)C)cc2NC(=O)Nc2ccc(OCc3ccnc4[nH]c(=O)cnc34)c3ccccc23)cc1
f
